The values you see were collected from patent US20200113950A1.

- EXPERIMENTAL_SYSTEM: UniProt O95977
- Sequence (O95977 whole entry): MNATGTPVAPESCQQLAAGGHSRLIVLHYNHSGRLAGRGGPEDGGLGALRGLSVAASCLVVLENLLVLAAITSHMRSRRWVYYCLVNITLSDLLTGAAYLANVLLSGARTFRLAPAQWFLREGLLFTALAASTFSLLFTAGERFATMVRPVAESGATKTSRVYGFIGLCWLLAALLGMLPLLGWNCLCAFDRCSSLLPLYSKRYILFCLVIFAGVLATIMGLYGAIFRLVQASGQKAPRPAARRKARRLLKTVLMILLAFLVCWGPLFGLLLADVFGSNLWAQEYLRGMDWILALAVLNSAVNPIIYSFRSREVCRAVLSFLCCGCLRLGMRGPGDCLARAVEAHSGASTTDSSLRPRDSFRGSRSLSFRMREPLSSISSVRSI
- TEST_PROTOCOL: β-arrestin cell-based GPCR assay (DiscoveRx), agonist mode, S1PR4
- EXPERIMENTAL_CONTEXT: β-arrestin assay, dose response in duplicate; read-out: EC50, activation of S1PR4
VALUE_TYPE: EC50 (µM)
State the answer as a number, implicitly in µM.

Given item CCCCCCCCCCCCC/C=C/[C@@H](O)[C@@H](N)COP(=O)(O)O [Compound S1P, sphingosine-1-phosphate, reference compound] , the value recorded as its EC50 is 0.09

###

- EXPERIMENTAL_SYSTEM: G2A (Homo sapiens, UniProt Q9UNW8)
- Sequence (Q9UNW8 whole entry): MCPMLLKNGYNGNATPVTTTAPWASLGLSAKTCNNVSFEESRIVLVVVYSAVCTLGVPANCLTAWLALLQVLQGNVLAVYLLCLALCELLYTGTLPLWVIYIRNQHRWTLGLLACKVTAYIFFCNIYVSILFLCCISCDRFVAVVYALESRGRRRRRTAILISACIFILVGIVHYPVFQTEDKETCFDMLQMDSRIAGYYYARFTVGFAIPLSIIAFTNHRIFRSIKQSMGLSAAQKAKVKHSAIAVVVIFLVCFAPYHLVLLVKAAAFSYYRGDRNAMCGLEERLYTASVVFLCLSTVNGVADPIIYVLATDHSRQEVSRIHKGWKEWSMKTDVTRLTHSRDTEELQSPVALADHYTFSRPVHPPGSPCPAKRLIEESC
- TEST_PROTOCOL: β-arrestin cell-based GPCR assay (DiscoveRx), agonist mode, orphan receptor G2A
- EXPERIMENTAL_CONTEXT: β-arrestin assay, dose response; read-out: EC50, activation of G2A
VALUE_TYPE: EC50 (µM)
Kindly answer with a numeric value in µM, unit omitted.

Note to self: EC50 recorded for CCCCCCCCCCCCCC(=O)N[C@@H](C)C(=O)O [N-myristoyl alanine] was 3

###

- EXPERIMENTAL_SYSTEM: GPR119 (Homo sapiens)
- Sequence (Q8TDV5 1-335): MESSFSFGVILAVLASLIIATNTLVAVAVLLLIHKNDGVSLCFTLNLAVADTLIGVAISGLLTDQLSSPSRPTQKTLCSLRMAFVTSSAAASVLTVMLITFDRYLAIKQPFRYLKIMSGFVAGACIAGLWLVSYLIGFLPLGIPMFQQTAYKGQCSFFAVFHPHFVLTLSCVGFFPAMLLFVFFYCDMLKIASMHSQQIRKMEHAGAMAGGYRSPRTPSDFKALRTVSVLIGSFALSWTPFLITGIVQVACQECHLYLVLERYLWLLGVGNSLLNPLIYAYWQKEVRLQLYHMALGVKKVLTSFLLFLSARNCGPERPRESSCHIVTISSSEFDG
- TEST_PROTOCOL: β-arrestin cell-based GPCR assay (DiscoveRx), agonist mode, GPR119
- EXPERIMENTAL_CONTEXT: β-arrestin assay, dose response in duplicate; read-out: EC50, activation of GPR119
VALUE_TYPE: pEC50
Answer as the number alone; pEC50 is minus log10 of concentration in mol/L.

Reported pEC50 ( CCCCCCCC/C=C\CCCCCCCC(=O)NCCO [OEA, oleoylethanolamide] ) = 5.15

###

- EXPERIMENTAL_SYSTEM: PTGIR (Homo sapiens, UniProt P43119)
- Sequence (P43119 whole entry): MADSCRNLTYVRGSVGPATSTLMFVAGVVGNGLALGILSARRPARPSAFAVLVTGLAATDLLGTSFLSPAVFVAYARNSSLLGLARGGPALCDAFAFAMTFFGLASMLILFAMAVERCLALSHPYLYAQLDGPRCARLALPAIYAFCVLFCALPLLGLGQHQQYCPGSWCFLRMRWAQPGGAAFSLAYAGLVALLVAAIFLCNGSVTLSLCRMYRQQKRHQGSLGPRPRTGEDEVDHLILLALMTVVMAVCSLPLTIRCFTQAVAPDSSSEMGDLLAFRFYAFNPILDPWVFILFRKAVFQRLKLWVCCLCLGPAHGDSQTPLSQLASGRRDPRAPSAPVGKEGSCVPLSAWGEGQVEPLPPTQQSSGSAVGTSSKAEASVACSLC
- TEST_PROTOCOL: β-arrestin cell-based GPCR assay (DiscoveRx), antagonist mode, PTGIR
- EXPERIMENTAL_CONTEXT: in the presence of endogenous ligand; read-out: IC50, antagonist activity against PTGIR
VALUE_TYPE: pIC50
The scale used: pIC50 is minus the common logarithm of the concentration in molar units.

Entry CCCCCCCCCCCC(O)CC(=O)OC(CCCCCCC)CC(=O)N[C@@H](CCC(N)=O)C(=O)O (stereo partly shown) : pIC50 on PTGIR (Homo sapiens, UniProt P43119) = 4.82

###

- EXPERIMENTAL_SYSTEM: PTGER4 (Homo sapiens, UniProt P35408)
- Sequence (P35408 whole entry): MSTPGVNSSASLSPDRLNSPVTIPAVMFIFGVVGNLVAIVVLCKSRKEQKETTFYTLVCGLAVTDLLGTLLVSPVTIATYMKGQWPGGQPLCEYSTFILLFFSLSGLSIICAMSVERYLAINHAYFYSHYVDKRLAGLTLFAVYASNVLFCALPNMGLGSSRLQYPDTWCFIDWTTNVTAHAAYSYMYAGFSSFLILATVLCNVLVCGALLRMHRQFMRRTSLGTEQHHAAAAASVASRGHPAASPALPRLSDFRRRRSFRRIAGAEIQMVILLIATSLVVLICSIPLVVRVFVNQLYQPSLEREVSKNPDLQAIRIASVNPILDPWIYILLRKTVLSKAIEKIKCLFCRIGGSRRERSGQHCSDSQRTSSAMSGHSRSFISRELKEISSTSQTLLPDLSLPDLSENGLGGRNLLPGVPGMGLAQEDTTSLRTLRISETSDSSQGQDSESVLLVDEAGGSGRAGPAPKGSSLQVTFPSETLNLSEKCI
- TEST_PROTOCOL: β-arrestin cell-based GPCR assay (DiscoveRx), antagonist mode, PTGER4
- EXPERIMENTAL_CONTEXT: in the presence of endogenous ligand; read-out: IC50, antagonist activity against PTGER4
VALUE_TYPE: pIC50
Keep in mind that pIC50 stands for -log10 of concentration in molar terms.

Record CCCCCCCCCCCC(O)CC(=O)OC(CCCCCCC)CC(=O)N[C@@H](CCC(N)=O)C(=O)O (stereo partly shown) [N-acyloxyacyl glutamine] , field pIC50: 4.37
